IC50 for Epidermal growth factor receptor (Homo sapiens), merged from several publications.

INSERT INTO measurements (compound, value) VALUES
  ('Cc1ccnc(NC(=O)c2ccc(-c3nn([C@@H]4CCN(C(=O)/C=C/CN(C)C5CC5)C4)c4ncnc(N)c34)cc2)c1', '1000 to 10000 nM');

// returns reported IC50 for input `CN(C)C1CCN(c2ccc(Nc3ncc(Br)c(Nc4cccc5c4N(S(C)(=O)=O)CC5)n3)c3c2CCC3)CC1`
6.5 nM

Now the same for `Fc1cccc(Nc2ncnc3sc4ccccc4c23)c1`
26.9 nM

Another compound to look at: `CCc1nc(-c2ccc(F)c(NS(=O)(=O)c3ccccc3)c2)c(-c2ccnc(Nc3ccc(N4CCN(CCS(C)(=O)=O)CC4)c(F)c3)n2)s1`
> 1000 nM

Please give the result for Cc1ccc(Oc2ccc(Nc3ncnc4sc5c(c34)CCN(C(=O)/C=C/CN3C[C@H]4C[C@@H]3CC4C#N)C5)cc2C)cn1 (stereo partly shown) too.
> 10000 nM

Could you do the same for `COc1cc2ncnc(Nc3ccc(F)c(Cl)c3)c2cc1NC(=O)CCCC(=O)NO` , please?
< 100 nM

Lookup `C=CC(=O)Nc1cccc(Oc2nc(Nc3ccc(OC)nc3)ncc2C(=O)NC2CC2)c1`
< 10 nM

====

Let's look at some pIC50 data for Epidermal growth factor receptor (Homo sapiens) that I collected from the literature.
pIC50: −log10 of the molar value.

Here's what some known entries look like.
INSERT INTO measurements (molecule, measured_target, parameter, value) VALUES
  ('C=CC(=O)Nc1cc(-c2c(-c3cccc(C(=O)N4CCC5(CC4)CN(C)C5)c3)[nH]c3nccc(Cl)c23)ccc1C', 'Epidermal growth factor receptor (Homo sapiens)', 'pIC50', '≥ 7.00'),
  ('C=CC(=O)Nc1cccc(N2C(=O)N(C)Cc3cnc(Nc4ccc(N5CCCCC5)cc4OC)nc32)c1', 'Epidermal growth factor receptor (Homo sapiens)', 'pIC50', '7.00 to 8.00'),
  ('CC1Cc2c(N3CCN(C)CC3)ccc(Nc3ncc(Br)c(Nc4cccc5c4N(S(C)(=O)=O)CC5)n3)c2O1 (stereo not drawn)', 'Epidermal growth factor receptor (Homo sapiens)', 'pIC50', 7.94),
  ('Cc1cc(Nc2ncc(F)c(Nc3ccccc3P(C)(C)=O)n2)ccc1N1CC2(CC(N)C2)C1', 'Epidermal growth factor receptor (Homo sapiens)', 'pIC50', 7.00),
  ('C=CC(=O)Nc1cc(-c2c(-c3ccc(C4CCN(C)CC4)cc3)[nH]c3nccc(OC)c23)ccc1C', 'Epidermal growth factor receptor (Homo sapiens)', 'pIC50', '≥ 7.00');

API: value(readout= pIC50, system= Epidermal growth factor receptor (Homo sapiens), query= `C=CC(=O)N1CCOc2c1ccc1ncnc(Nc3ccc(OCc4cccc(F)c4)c(Cl)c3)c21` )
≥ 7.30

And then `COc1cc(Nc2ncc(Br)c(Nc3ccc(-c4ccc(C)cn4)cc3P(C)(C)=O)n2)c(C)cc1N1CCOCC1` , what is it?
7.26

Then what about the molecule `CC(=O)N1CCc2cc(Nc3nccc(-c4sc(C(C)C)nc4-c4cccc(NS(=O)(=O)c5ccccc5)c4)n3)ccc21` ?
6.00 to 7.00

Then this molecule: `CN(C/C=C/C(=O)Nc1cccc(-n2c(=O)n(-c3ccc(Oc4cccc(F)c4)cc3)c3c(N)ncnc32)c1)[C@H]1CCOC1`
6.00 to 7.00

What would you report for `CN(C)C/C=C/C(=O)N1CCOc2c1ccc1ncnc(Nc3ccc(Oc4cc(F)ccc4F)cc3)c21` ?
6.30 to 7.30

Do the same for `COc1cc2ncnc(Nc3ccc(O[C@H]4CO[C@H]5[C@@H]4OC[C@@H]5OC(C)=O)cc3)c2cc1OC` please
< 6.30

Another molecule to check: `CC#CC(=O)N1CCC[C@@H]1Cn1nc(-c2ccc(Oc3ccccc3)cc2)c2c(N)ncnc21`
6.54
